- System: EMT-6 tumors
- PROCEDURE_TEXT: Biodistribution of 18F-labeled ligands in mice bearing EMT-6 tumors
- Assay type: in vivo, female Balb/c mice
- TEST_PARAMETERS: 30 min after i.v. injection
MEASUREMENT_TYPE: Biodistribution: blood (%ID/g)
Just the number please, in %ID/g, no unit attached.

Guide cases for Biodistribution: blood, answers given:
COc1cc2c(cc1OC)CN(CCCCNC(=O)c1cc(I)ccc1OCC[18F])CC2 [[^18F]3e] : 4.30
COc1cc2c(cc1OC)CN(CCCCNC(=O)c1cc(Br)ccc1OCC[18F])CC2 [[^18F]3d] : 2.81
COc1cc2c(cc1OC)CN(CCCCNC(=O)c1cc(I)cc(OC)c1OCC[18F])CC2 [[^18F]3f] : 1.23

Then there is this compound:
Which Biodistribution: blood reading was recorded for the compound COc1cc2c(cc1OC)CN(CCCCNC(=O)c1cc(C)ccc1OCC[18F])CC2 [[^18F]3c] ?
1.16

====

This section presents compounds with their documented Biodistribution: brain values.
- System: EMT-6 tumors
- PROCEDURE_TEXT: Biodistribution of 18F-labeled ligands in mice bearing EMT-6 tumors
- Assay type: in vivo, female Balb/c mice
- TEST_PARAMETERS: 30 min after i.v. injection

COc1cc2c(cc1OC)CN(CCCCNC(=O)c1cc(I)ccc1OCC[18F])CC2 [[^18F]3e] : 0.44 ± 0.04 %ID/g
COc1cc2c(cc1OC)CN(CCCCNC(=O)c1cc(Br)ccc1OCC[18F])CC2 [[^18F]3d] : 0.40 ± 0.03 %ID/g
COc1cc2c(cc1OC)CN(CCCCNC(=O)c1cc(I)cc(OC)c1OCC[18F])CC2 [[^18F]3f] : 0.27 ± 0.04 %ID/g

Which Biodistribution: brain reading was recorded for the compound COc1cc2c(cc1OC)CN(CCCCNC(=O)c1cc(C)ccc1OCC[18F])CC2 [[^18F]3c] ?
0.27 ± 0.05 %ID/g

====

- Tested on: EMT-6 tumors
- PROCEDURE_TEXT: Biodistribution of 18F-labeled ligands in mice bearing EMT-6 tumors
- Assay type: in vivo, female Balb/c mice
- TEST_PARAMETERS: 60 min after i.v. injection
This section presents compounds with their documented Biodistribution: lung values.
Entry format: amount then unit.

COc1cc2c(cc1OC)CN(CCCCNC(=O)c1cc(Br)ccc1OCC[18F])CC2 [[^18F]3d] : 1.60 ± 0.27 %ID/g
COc1cc2c(cc1OC)CN(CCCCNC(=O)c1cc(C)ccc1OCC[18F])CC2 [[^18F]3c] : 0.88 ± 0.12 %ID/g
COc1cc2c(cc1OC)CN(CCCCNC(=O)c1cc(I)cc(OC)c1OCC[18F])CC2 [[^18F]3f] : 1.51 ± 0.13 %ID/g

Which Biodistribution: lung reading was recorded for the compound COc1cc2c(cc1OC)CN(CCCCNC(=O)c1cc(I)ccc1OCC[18F])CC2 [[^18F]3e] ?
2.34 ± 0.12 %ID/g

====

- Tested on: EMT-6 tumors
- PROCEDURE_TEXT: Biodistribution of 18F-labeled ligands in mice bearing EMT-6 tumors
- Assay type: in vivo, female Balb/c mice
- TEST_PARAMETERS: 120 min after i.v. injection
This section presents compounds with their documented Biodistribution: bone values.
Just the number please, in %ID/g, no unit attached.

Guide cases for Biodistribution: bone, answers given:
COc1cc2c(cc1OC)CN(CCCCNC(=O)c1cc(I)cc(OC)c1OCC[18F])CC2 [[^18F]3f] : 0.59
COc1cc2c(cc1OC)CN(CCCCNC(=O)c1cc(C)ccc1OCC[18F])CC2 [[^18F]3c] : 0.45
COc1cc2c(cc1OC)CN(CCCCNC(=O)c1cc(Br)ccc1OCC[18F])CC2 [[^18F]3d] : 1.28

Which Biodistribution: bone reading was recorded for the compound COc1cc2c(cc1OC)CN(CCCCNC(=O)c1cc(I)ccc1OCC[18F])CC2 [[^18F]3e] ?
1.67

====

- Tested on: EMT-6 tumors
- PROCEDURE_TEXT: Biodistribution of 18F-labeled ligands in mice bearing EMT-6 tumors
- Type: in vivo, female Balb/c mice
- TEST_PARAMETERS: 30 min after i.v. injection
MEASUREMENT_TYPE: Biodistribution: bone (%ID/g)
Just the number please, in %ID/g, no unit attached.

Guide cases for Biodistribution: bone, answers given:
COc1cc2c(cc1OC)CN(CCCCNC(=O)c1cc(I)ccc1OCC[18F])CC2 [[^18F]3e] : 1.31
COc1cc2c(cc1OC)CN(CCCCNC(=O)c1cc(C)ccc1OCC[18F])CC2 [[^18F]3c] : 0.96
COc1cc2c(cc1OC)CN(CCCCNC(=O)c1cc(I)cc(OC)c1OCC[18F])CC2 [[^18F]3f] : 2.01

Then there is this compound:
Which Biodistribution: bone reading was recorded for the compound COc1cc2c(cc1OC)CN(CCCCNC(=O)c1cc(Br)ccc1OCC[18F])CC2 [[^18F]3d] ?
1.17

====

This section presents compounds with their documented Biodistribution: muscle values.
- System: EMT-6 tumors
- PROCEDURE_TEXT: Biodistribution of 18F-labeled ligands in mice bearing EMT-6 tumors
- Type: in vivo, female Balb/c mice
- TEST_PARAMETERS: 60 min after i.v. injection
Just the number please, in %ID/g, no unit attached.

COc1cc2c(cc1OC)CN(CCCCNC(=O)c1cc(Br)ccc1OCC[18F])CC2 [[^18F]3d] : 0.58
COc1cc2c(cc1OC)CN(CCCCNC(=O)c1cc(C)ccc1OCC[18F])CC2 [[^18F]3c] : 0.34
COc1cc2c(cc1OC)CN(CCCCNC(=O)c1cc(I)cc(OC)c1OCC[18F])CC2 [[^18F]3f] : 0.40

Then there is this compound:
Which Biodistribution: muscle reading was recorded for the compound COc1cc2c(cc1OC)CN(CCCCNC(=O)c1cc(I)ccc1OCC[18F])CC2 [[^18F]3e] ?
0.83

====

- Test system: EMT-6 tumors
- PROCEDURE_TEXT: Biodistribution of 18F-labeled ligands in mice bearing EMT-6 tumors
- Assay type: in vivo, female Balb/c mice
- TEST_PARAMETERS: 60 min after i.v. injection
MEASUREMENT_TYPE: Biodistribution: kidney (%ID/g)
Just the number please, in %ID/g, no unit attached.

Guide cases for Biodistribution: kidney, answers given:
COc1cc2c(cc1OC)CN(CCCCNC(=O)c1cc(I)cc(OC)c1OCC[18F])CC2 [[^18F]3f] : 3.50
COc1cc2c(cc1OC)CN(CCCCNC(=O)c1cc(I)ccc1OCC[18F])CC2 [[^18F]3e] : 9.36
COc1cc2c(cc1OC)CN(CCCCNC(=O)c1cc(C)ccc1OCC[18F])CC2 [[^18F]3c] : 2.51

Which Biodistribution: kidney reading was recorded for the compound COc1cc2c(cc1OC)CN(CCCCNC(=O)c1cc(Br)ccc1OCC[18F])CC2 [[^18F]3d] ?
6.92

====

- Tested on: EMT-6 tumors
- PROCEDURE_TEXT: Biodistribution of 18F-labeled ligands in mice bearing EMT-6 tumors
- Format: in vivo, female Balb/c mice
- TEST_PARAMETERS: 60 min after i.v. injection
This section presents compounds with their documented Biodistribution: liver values.
Entry format: amount then unit.

Guide cases for Biodistribution: liver, answers given:
COc1cc2c(cc1OC)CN(CCCCNC(=O)c1cc(C)ccc1OCC[18F])CC2 [[^18F]3c] : 4.14 ± 0.55 %ID/g
COc1cc2c(cc1OC)CN(CCCCNC(=O)c1cc(I)cc(OC)c1OCC[18F])CC2 [[^18F]3f] : 5.57 ± 0.31 %ID/g
COc1cc2c(cc1OC)CN(CCCCNC(=O)c1cc(I)ccc1OCC[18F])CC2 [[^18F]3e] : 7.31 ± 0.98 %ID/g

Which Biodistribution: liver reading was recorded for the compound COc1cc2c(cc1OC)CN(CCCCNC(=O)c1cc(Br)ccc1OCC[18F])CC2 [[^18F]3d] ?
5.69 ± 0.54 %ID/g

====

This section presents compounds with their documented Biodistribution: muscle values.
- System: EMT-6 tumors
- PROCEDURE_TEXT: Biodistribution of 18F-labeled ligands in mice bearing EMT-6 tumors
- Assay type: in vivo, female Balb/c mice
- TEST_PARAMETERS: 120 min after i.v. injection
- Description: This example illustrates in vivo evaluation of compounds of the present teachings. All animal experiments were conducted in compliance with the Guidelines for the Care and Use of Research Animals established by Washington University's Animal Studies Committee. […] After counting, the percentage of the injected dose per gram of tissue (%ID/g) was calculated. The tumor/organ ratios were calculated by dividing the %ID/g of the tumor by the %ID/g of each organ.
Just the number please, in %ID/g, no unit attached.

Guide cases for Biodistribution: muscle, answers given:
COc1cc2c(cc1OC)CN(CCCCNC(=O)c1cc(Br)ccc1OCC[18F])CC2 [[^18F]3d] : 0.28
COc1cc2c(cc1OC)CN(CCCCNC(=O)c1cc(C)ccc1OCC[18F])CC2 [[^18F]3c] : 0.24
COc1cc2c(cc1OC)CN(CCCCNC(=O)c1cc(I)cc(OC)c1OCC[18F])CC2 [[^18F]3f] : 0.15

Then there is this compound:
Tell me reported Biodistribution: muscle for COc1cc2c(cc1OC)CN(CCCCNC(=O)c1cc(I)ccc1OCC[18F])CC2 [[^18F]3e] , tested with EMT-6 tumors.
0.60
